# test.system: NOX (NADPH oxidase) (Homo sapiens)
# Construct: endogenous in cells; host or cells: HL-60 cells differentiated with 1% DMSO, used as a sonicated homogenate supernatant (A1) or as viable cells (A2)
# Sequence (P04839 2-570 limits assumed): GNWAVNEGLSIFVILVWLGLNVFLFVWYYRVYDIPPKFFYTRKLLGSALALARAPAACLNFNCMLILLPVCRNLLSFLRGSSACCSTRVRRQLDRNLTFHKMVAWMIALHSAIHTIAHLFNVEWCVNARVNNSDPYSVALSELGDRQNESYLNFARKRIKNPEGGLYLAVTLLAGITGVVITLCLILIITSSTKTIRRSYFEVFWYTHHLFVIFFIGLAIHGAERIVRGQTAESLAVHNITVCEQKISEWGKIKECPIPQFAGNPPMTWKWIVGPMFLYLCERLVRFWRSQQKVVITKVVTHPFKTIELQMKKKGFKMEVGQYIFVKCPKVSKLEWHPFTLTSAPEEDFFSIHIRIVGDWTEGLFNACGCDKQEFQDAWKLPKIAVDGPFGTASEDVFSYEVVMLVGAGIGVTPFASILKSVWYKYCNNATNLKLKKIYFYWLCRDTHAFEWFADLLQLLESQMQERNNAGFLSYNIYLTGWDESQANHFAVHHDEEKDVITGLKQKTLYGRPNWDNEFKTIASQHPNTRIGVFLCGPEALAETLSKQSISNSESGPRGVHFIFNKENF
# Sequence (P13498 2-195 partner limits assumed): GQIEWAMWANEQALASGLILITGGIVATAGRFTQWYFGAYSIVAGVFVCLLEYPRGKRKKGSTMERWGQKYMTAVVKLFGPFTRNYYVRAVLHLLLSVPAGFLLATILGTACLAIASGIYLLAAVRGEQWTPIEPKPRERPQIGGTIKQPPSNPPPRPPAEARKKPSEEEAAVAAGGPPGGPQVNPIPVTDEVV
# protocol.details: NOX activity measurement in a cell-free system using a homogenate of differentiated HL-60 cells (NADPH consumption, fluorometry)
# Format: biochemical
# assay.context: Example 5; share of the black ginger extract's NOX inhibitory activity per compound
outcome.measure: NOX inhibitory activity (distribution %)
The response must be a number in % with no trailing unit.

Worked examples, 2 molecules total:
COc1cc(OC)c2c(=O)cc(-c3ccccc3)oc2c1 :: 19
COc1cc(OC)c2c(=O)c(OC)c(-c3ccc(OC)c(OC)c3)oc2c1 :: 45

input: Requested read-out: NOX inhibitory activity (distribution %). Entry: COc1ccc(-c2cc(=O)c3c(OC)cc(OC)cc3o2)cc1
output: 21

input: Consider the molecule shown here: COc1cc(OC)c2c(=O)cc(-c3ccc(OC)c(OC)c3)oc2c1 What is its recorded NOX inhibitory activity (distribution %)?
output: 12

These entries and their values trace back to patent US20170071902A1.
